subject.of.test: human KDR (VEGFR2) on cells (human, UniProt P35968 20-1356)
Sequence (P35968 20-1356): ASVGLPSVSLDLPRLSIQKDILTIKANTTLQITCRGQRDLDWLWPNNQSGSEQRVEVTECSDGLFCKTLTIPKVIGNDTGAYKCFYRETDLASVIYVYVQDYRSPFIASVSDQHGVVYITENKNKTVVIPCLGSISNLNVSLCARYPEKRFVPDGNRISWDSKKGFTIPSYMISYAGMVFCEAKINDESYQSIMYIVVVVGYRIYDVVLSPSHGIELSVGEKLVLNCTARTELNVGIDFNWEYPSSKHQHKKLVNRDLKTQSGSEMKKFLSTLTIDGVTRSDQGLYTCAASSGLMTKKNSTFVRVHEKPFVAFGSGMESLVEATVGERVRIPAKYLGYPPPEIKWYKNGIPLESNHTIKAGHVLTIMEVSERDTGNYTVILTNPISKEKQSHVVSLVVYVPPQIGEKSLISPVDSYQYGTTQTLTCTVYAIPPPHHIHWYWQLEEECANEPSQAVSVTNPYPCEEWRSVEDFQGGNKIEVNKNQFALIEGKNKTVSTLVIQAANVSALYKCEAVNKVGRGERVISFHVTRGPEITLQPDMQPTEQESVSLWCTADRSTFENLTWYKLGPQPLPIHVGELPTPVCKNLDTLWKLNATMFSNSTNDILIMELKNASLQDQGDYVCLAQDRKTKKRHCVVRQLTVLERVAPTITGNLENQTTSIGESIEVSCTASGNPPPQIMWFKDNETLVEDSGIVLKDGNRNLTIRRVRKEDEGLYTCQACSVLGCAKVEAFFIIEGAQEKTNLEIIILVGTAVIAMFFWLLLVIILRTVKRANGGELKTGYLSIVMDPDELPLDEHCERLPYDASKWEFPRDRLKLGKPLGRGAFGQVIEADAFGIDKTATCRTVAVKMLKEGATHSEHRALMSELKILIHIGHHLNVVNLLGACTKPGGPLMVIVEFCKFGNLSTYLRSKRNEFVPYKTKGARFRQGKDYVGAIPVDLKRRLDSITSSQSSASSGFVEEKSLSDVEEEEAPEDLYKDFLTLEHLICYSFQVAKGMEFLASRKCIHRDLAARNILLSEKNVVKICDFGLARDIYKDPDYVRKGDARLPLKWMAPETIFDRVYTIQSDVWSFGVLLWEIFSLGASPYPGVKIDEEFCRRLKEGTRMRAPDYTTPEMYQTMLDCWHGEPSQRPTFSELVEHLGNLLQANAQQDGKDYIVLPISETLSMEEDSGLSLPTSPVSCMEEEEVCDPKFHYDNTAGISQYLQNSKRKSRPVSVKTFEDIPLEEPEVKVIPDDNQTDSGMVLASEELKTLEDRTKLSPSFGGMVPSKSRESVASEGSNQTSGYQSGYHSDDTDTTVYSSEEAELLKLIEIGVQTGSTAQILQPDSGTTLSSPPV
experiment.notes: cell-based or functional assay; note: test concentration or dose not given here
# maps each entry to its % Inhibition of VEGF165-mediated pTyr Activity, n = 1
assay.endpoint: % Inhibition of VEGF165-mediated pTyr Activity, n = 1

{"binder": "anti-KDR monoclonal antibody 31E11 (antibody, V domains shown, Fully human mAb from XenoMouse (IgG2 or IgG4 strain); hybridoma supernatant) VH: QVQLVESGGGLVKPGGSLRLSCAASGFTFSDYYMSWIRQAPGKGLEWVSYISISGSTIYYADSVKGRFTISRDNAKNSLYLQMNSLRAEDTAVYYCARDDFWSGYYFNWFDPWGQGTLVTVSS VL: DIQMTQSPSSLSASVGDRVTITCRANQTISTFLNWYQQNPGKAPKLLIYAASSLQSGVPSRFSGSGSGTDFTLTISSLQPEDFATYYCQQTYIIPLTFGGGTKVEIK", "result": "81%"}
{"binder": "anti-KDR monoclonal antibody 29F7 (antibody, V domains shown, Fully human mAb from XenoMouse (IgG2 or IgG4 strain); hybridoma supernatant) VH: QVQLVQSGAEVKKPGASVKVSCKASGYTFTSYDINWVRQATGQGLEWMGWMNPNSGKTGYAQKFQGRVTMTRSTSISTAYMELSSLRSEDTAVYYCARGGYSNLGWFDPWGQGTLVTVSS VL: DIQMTQSPSSVFASVGDRVTITCRASQGISTWLAWYQQKPGKAPKFLIYAASSLQSGVPSRFSGSGSGTDFTLTISSLQPDDFATYYCQQANNFPFTFGPGTKVDIK", "result": "90%"}
